Origin of values: paper PMC5282848

target_of_assay: S. kowalevskii Tyramine-1 (Saccoglossus kowalevskii)
Construct: full-length in pcDNA3.1(+), expressed in CHO-K1 with Gα-16 and GFP-apoaequorin
Sequence (A0ABM0H1U8 1-430): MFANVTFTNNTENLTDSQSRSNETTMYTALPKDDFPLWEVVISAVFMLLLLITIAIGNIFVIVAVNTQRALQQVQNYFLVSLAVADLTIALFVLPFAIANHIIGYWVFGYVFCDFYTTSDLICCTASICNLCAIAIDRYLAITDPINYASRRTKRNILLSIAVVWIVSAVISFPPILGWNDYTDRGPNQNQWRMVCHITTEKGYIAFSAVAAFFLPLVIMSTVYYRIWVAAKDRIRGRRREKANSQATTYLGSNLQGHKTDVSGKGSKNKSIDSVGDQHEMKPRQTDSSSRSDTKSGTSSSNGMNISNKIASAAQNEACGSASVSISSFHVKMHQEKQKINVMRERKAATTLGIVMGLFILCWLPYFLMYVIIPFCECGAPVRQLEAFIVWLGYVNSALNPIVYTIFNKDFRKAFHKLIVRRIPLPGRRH
protocol: Ca2+ mobilization, GFP-apoaequorin luminescence in CHO-K1 with Gα-16
measured_parameter: EC50 (µM)
State the answer as a number, implicitly in µM.

**Q:** Query (molecule): NCCc1ccc(O)cc1 ; field requested: EC50
**A:** 86

====

target_of_assay: S. kowalevskii α2-adrenergic (Saccoglossus kowalevskii)
Construct: full-length in pcDNA3.1(+), expressed in CHO-K1 with Gα-16 and GFP-apoaequorin
Sequence (A0ABM0GQ86 1-464): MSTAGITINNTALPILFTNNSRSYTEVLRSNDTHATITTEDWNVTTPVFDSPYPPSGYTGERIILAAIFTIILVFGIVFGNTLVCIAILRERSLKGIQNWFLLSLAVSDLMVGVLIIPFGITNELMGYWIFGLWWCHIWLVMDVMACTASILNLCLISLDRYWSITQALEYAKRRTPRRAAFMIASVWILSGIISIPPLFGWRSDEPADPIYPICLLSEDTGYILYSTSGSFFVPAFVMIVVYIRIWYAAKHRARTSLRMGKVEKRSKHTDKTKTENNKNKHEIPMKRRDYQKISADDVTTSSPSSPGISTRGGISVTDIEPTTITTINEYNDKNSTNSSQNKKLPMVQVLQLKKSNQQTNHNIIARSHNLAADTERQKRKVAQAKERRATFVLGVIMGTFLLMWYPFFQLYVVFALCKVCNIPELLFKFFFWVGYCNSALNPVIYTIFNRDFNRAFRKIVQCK
protocol: Ca2+ mobilization, GFP-apoaequorin luminescence in CHO-K1 with Gα-16
conditions_used: read-out: Epinephrine
Description: Ca2+ mobilization, GFP-apoaequorin luminescence in CHO-K1 with Gα-16 on S. kowalevskii α2-adrenergic
measured_parameter: EC50 (nM)
Report only the number, with the unit nM understood.

**Q:** Query: EC50; subject: CNC[C@H](O)c1ccc(O)c(O)c1 [epinephrine]
**A:** 2.3

====

target_of_assay: P. dumerilii Octopamine α (Platynereis dumerilii, UniProt A0A1J0F445)
Construct: full-length in pcDNA3.1(+), expressed in CHO-K1 with Gα-16 and GFP-apoaequorin
Sequence (A0A1J0F445 1-603): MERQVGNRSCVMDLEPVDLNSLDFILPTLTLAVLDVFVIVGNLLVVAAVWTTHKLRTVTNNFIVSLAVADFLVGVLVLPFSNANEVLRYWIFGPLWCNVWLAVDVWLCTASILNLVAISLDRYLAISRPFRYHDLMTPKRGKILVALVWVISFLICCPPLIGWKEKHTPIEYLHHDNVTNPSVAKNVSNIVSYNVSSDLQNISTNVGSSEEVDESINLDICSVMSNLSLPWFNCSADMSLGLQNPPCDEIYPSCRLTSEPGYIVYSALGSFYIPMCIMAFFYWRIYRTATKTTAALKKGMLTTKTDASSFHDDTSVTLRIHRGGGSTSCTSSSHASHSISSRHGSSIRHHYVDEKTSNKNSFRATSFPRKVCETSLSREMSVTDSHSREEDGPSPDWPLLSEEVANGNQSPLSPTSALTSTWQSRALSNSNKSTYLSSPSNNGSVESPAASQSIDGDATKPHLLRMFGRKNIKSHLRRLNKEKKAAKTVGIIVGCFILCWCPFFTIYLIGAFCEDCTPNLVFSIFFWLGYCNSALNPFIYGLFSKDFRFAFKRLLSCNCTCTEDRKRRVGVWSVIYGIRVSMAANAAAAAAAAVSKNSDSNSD
protocol: Ca2+ mobilization, GFP-apoaequorin luminescence in CHO-K1 with Gα-16
Format: cell-based
conditions_used: read-out: Clonidine
measured_parameter: pEC50
Schema: pEC50 number; meaning minus log10 of the concentration expressed in molar units.

**Q:** What pEC50 value was documented for this molecule, Clc1cccc(Cl)c1NC1=NCCN1 [clonidine] ?
**A:** 6.85

====

target_of_assay: S. kowalevskii Tyramine-2A (Saccoglossus kowalevskii, UniProt A0ABM0GNT8)
Construct: full-length in pcDNA3.1(+), expressed in CHO-K1 with Gα-16 and GFP-apoaequorin
Sequence (A0ABM0GNT8 1-458): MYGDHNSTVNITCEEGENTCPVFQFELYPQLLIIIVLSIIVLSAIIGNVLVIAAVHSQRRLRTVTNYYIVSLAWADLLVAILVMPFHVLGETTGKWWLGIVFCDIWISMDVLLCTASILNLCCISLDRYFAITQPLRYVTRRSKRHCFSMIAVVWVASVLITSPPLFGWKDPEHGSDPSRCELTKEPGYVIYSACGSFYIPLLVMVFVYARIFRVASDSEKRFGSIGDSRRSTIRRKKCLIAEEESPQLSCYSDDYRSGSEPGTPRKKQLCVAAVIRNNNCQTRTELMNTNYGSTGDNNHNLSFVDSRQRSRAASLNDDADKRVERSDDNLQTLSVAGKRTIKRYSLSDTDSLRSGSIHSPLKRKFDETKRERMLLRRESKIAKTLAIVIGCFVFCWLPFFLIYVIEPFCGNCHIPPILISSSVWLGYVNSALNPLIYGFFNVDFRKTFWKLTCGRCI
protocol: Ca2+ mobilization, GFP-apoaequorin luminescence in CHO-K1 with Gα-16
measured_parameter: pEC50
Conceptually, pEC50 converts a concentration in mol/L into minus its log10.

**Q:** Suppose we examine the molecule NCCc1ccc(O)cc1 ; what pEC50 value has been reported?
**A:** 9.00

====

target_of_assay: Platynereis dumerilii α1-adrenergic receptor (Platynereis dumerilii)
Construct: full-length in pcDNA3.1(+), expressed in CHO-K1 with Gα-16 and GFP-apoaequorin
Sequence (A0A1J0F5Z2 1-651): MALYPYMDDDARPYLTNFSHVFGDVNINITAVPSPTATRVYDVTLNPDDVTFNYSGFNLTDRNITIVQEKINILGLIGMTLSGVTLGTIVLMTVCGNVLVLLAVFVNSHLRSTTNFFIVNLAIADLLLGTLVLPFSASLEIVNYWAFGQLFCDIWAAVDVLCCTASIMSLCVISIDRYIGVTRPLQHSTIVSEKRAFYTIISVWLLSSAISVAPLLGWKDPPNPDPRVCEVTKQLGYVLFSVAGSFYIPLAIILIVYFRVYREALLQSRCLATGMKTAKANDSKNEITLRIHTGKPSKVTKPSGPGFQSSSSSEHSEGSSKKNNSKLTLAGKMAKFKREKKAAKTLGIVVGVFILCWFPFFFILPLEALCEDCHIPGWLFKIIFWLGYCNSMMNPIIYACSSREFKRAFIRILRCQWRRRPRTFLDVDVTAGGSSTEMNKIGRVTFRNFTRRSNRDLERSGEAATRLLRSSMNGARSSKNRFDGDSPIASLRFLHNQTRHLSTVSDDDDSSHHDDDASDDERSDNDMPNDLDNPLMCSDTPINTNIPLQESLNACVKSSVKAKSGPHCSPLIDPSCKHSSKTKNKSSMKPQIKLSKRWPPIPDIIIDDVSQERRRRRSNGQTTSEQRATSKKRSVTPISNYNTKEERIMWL
protocol: Ca2+ mobilization, GFP-apoaequorin luminescence in CHO-K1 with Gα-16
Assay type: cell-based
conditions_used: read-out: Norepinephrine
measured_parameter: EC50

**Q:** What value of measured EC50 is listed for NC[C@H](O)c1ccc(O)c(O)c1 [norepinephrine] ?
**A:** 210 nM

====

target_of_assay: P. caudatus α2-adrenergic (Priapulus caudatus)
Construct: gene LOC106820961; full-length in pcDNA3.1(+), expressed in CHO-K1 with Gα-16 and GFP-apoaequorin
Sequence (A0ABM1F9E8 1-470): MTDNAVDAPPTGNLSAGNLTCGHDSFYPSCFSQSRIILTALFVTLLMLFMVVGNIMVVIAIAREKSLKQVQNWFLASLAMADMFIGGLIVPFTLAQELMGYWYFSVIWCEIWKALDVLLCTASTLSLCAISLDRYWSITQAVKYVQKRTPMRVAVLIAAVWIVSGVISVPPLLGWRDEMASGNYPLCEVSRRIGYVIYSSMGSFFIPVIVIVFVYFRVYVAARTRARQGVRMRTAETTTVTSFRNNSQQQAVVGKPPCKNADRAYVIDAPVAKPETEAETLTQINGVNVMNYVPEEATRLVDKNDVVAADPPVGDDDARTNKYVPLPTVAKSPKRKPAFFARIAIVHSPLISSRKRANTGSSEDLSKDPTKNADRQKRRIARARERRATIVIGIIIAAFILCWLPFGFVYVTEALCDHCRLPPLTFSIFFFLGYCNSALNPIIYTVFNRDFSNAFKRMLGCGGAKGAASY
protocol: Ca2+ mobilization, GFP-apoaequorin luminescence in CHO-K1 with Gα-16
Type: cell-based
conditions_used: read-out: Norepinephrine
measured_parameter: EC50 (nM)
The reply should be a number in nM, with the unit left off.

**Q:** Lab note: need EC50 for NC[C@H](O)c1ccc(O)c(O)c1 [norepinephrine] on P. caudatus α2-adrenergic (Priapulus caudatus), anyone have it?
**A:** 470

====

System: S. kowalevskii Octopamine α
Construct: gene Octopamine alpha receptor; full-length in pcDNA3.1(+), expressed in CHO-K1 with Gα-16 and GFP-apoaequorin
protocol: Ca2+ mobilization, GFP-apoaequorin luminescence in CHO-K1 with Gα-16
Assay type: cell-based, Saccoglossus kowalevskii
conditions_used: agonist; HBSS, 1.8 mM Ca2+, 10 mM glucose; read-out: Octopamine
Text: Ca2+ mobilization, GFP-apoaequorin luminescence in CHO-K1 with Gα-16 on S. kowalevskii Octopamine α
measured_parameter: pEC50
Keep in mind that pEC50 stands for -log10 of concentration in molar terms.

**Q:** Endpoint output: pEC50 of NC[C@H](O)c1ccc(O)cc1 . Value?
**A:** 6.16
